test: CDX model: body and organ weight, CBC and blood biochemistry; type: in vivo; conditions: NSG mice, 5 mg/kg i.p. weekly x4, day 28, reference interval 12.20–13.90

structure smiles | HGB [g/dL]
FC(F)C(F)(F)COCc1ccnc(-c2cc(COCC(F)(F)C(F)F)ccn2)c1.[Cl][Pt][Cl] | 14.9

###

assay: PDX model: body and organ weight, CBC and blood biochemistry; type: in vivo; conditions: NSG mice, 5 mg/kg i.v. weekly x4, day 23, reference interval 12.20–13.90
assay readout: HGB (g/dL)

structure smiles | measured
FC(F)C(F)(F)COCc1ccnc(-c2cc(COCC(F)(F)C(F)F)ccn2)c1.[Cl][Pt][Cl] | 11.8

###

assay: CDX model: body and organ weight, CBC and blood biochemistry; type: in vivo; settings: NSG mice, 5 mg/kg i.p. weekly x4, day 28, reference interval 4.5–5.5
assay readout: Total protein (g/dL)

compound | measured
FC(F)C(F)(F)COCc1ccnc(-c2cc(COCC(F)(F)C(F)F)ccn2)c1.[Cl][Pt][Cl] [TFBPC] | 4.98
